For each of the binders below, state its peptide exchange yield.
target: T1, HLA-A*01:01 (human); assay: UV-exchange b2m ELISA; exchange-yield grade
T1 construct: also called peptide-receptive MHC molecules

Binder | Property Name | Experimental Value
SPVTSVHGGTY | peptide exchange yield | 20 to 50%
NVTMKVVSVLY | peptide exchange yield | 50 to 75%

Now for the binder whose peptide exchange yield we want.
Query: Note peptide exchange yield for the binder shown: `FVDNQYWRY`
Response: 50 to 75%
